B1: library; numbered along this chain (parent)
chain: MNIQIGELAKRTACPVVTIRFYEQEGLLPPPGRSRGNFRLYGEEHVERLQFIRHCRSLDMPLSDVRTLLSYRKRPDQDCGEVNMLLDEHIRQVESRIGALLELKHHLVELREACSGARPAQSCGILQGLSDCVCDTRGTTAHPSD

variants of: B1; assay: sfGFP reporter fluorescence (15 h) (µM FITC); higher = higher leak; details: library round: Round 0; ligand: none
Quick rule: sfGFP reporter fluorescence of at least 0.06 means Met, below that means Not met.

Here's what some known entries look like.
{"Var": "D64E", "Label value": "Not met"}
{"Var": "D131Q", "Label value": "Met"}
{"Var": "R48A", "Label value": "Not met"}
{"Var": "L107C", "Label value": "Met"}
{"Var": "M60L D64K", "Label value": "Met"}
{"Var": "P61V", "Label value": "Met"}
{"Var": "L27K", "Label value": "Met"}
{"Var": "P61Q", "Label value": "Met"}

// inclusive: sfGFP reporter fluorescence at least 0.06? input: K73A Met

// inclusive: sfGFP reporter fluorescence at least 0.06? input: P143T Not met

// inclusive: sfGFP reporter fluorescence at least 0.06? input: I52A Met

// inclusive: sfGFP reporter fluorescence at least 0.06? input: C55G Not met

// inclusive: sfGFP reporter fluorescence at least 0.06? input: R137A Not met
